- Species on record: Rattus norvegicus
- Assay Details: Ability to inhibit anaphylactically induced release of histamine (AIR) from rat peritoneal mast cells
- Format: functional, cell-based
Metric Name: IC50 (µM)
Numeric answer only, unit µM assumed.

Inquiry: Looking for the measured IC50 of `COc1ccccc1NC(=O)Oc1cccc2cccnc12` , can you help?
Reply text: 2

----------
Please respond with reported inhibition in vivo at 10 mg/kg for every item in the list.
- Test system: Rattus norvegicus
- Assay Details: Percentage inhibition against passive cutaneous anaphylaxis after injecting 10 mg/kg intraperitoneally in rat
- Assay type: functional
- Condition Notes: Rattus norvegicus, ip, route intraperitoneal
Could you give me the number in %? Just the number is fine.

Inquiry: What value of inhibition in vivo at 10 mg/kg has been reported for the following compound? `CCOC(=O)c1nc2cc(Cl)c3cccnc3c2o1`
Reply text: 59

Inquiry: What measured inhibition in vivo at 10 mg/kg goes with `COC(=O)c1nc2cc(Cl)c3cccnc3c2o1` ?
Reply text: 100

Inquiry: Data request, read-out inhibition in vivo at 10 mg/kg, for `CCOC(=O)Cc1nc2cc(Cl)c3cccnc3c2o1`
Reply text: 9

Inquiry: Can you look up the measured inhibition in vivo at 10 mg/kg of `O=C(O)c1nc2cc(Cl)c3cccnc3c2o1` for me?
Reply text: 47

----------
- Organism: Rattus norvegicus
- Assay Details: Percentage inhibition against passive cutaneous anaphylaxis in rat, when injected perorally
- Format: functional
Give measured Inhibition for each item. Keep answers brief.
Answer as a quantity: numeral, then unit.

Inquiry: Requested read-out: Inhibition. Entry: `COc1ccccc1C(=O)n1c(=O)oc2c3ncccc3c(Cl)cc21`
Reply text: 34%

Inquiry: // query Inhibition value for entry `O=C(/C=C/c1ccccc1)n1c(=O)oc2c3ncccc3c(Cl)cc21`
Reply text: 0%

Inquiry: What value of Inhibition has been recorded for this entry: `CCOC(=O)n1c(=O)oc2c3ncccc3c(Cl)cc21`
Reply text: 43%

Inquiry: If you can, please state the reported Inhibition value of `CC(=O)n1c(=O)oc2c3ncccc3c(Cl)cc21` .
Reply text: 15%
